Molecular target: UniProtKB P14902
Assay: IDO1 Human Whole Blood Assay
Format: cell-based
Design: Human whole blood was drawn in sodium heparin coated tubes from healthy internal donors; from tissue; host or cells: human whole blood from healthy donors, stimulated with LPS and IFNγ
Conditions: LPS and IFNγ stimulated
Field: pIC50. Provide a value for each of the compounds that follow.
One number for each entry, as −log10 of the molar value.

The following compounds have reported results that may help.
Query :: Find the recorded pIC50 belonging to O=C(Nc1ccc(Cl)cc1)C1(c2ccc3c(n2)CCCN3c2ccnc(C(F)(F)F)n2)COC1 and report it.
Result :: 7.57

Query :: So what does the record say about pIC50 for C[C@@H](C(=O)Nc1ccc(F)cn1)c1ccc2c(c1)CCCN2C(=O)c1cccc(Cl)c1 (single isomer, unassigned) ?
Result :: 7.72

Query :: Sample C[C@H](C(=O)Nc1ccc(F)cc1)c1ccc2c(c1)CCCN2C(=O)C1CCOCC1 — what was its pIC50?
Result :: 7.00

Quick request: pIC50 for each listed item, please.
1. N#Cc1cccc(C(=O)N2CCCc3nc(C4(NC(=O)c5ccc(F)cc5)CC4)ccc32)c1
2. CC(C)NC(=O)N1CCCc2cc([C@H](C)C(=O)Nc3ccc(F)cc3)ccc21

Result ::
7.72
7.42

Dear reader, for each entry below, please note its pIC50.
1. C[C@H](C(=O)Nc1ccc(F)cc1)c1ccc2c(c1)CCCN2C(=O)c1cccc(Cl)c1 (single isomer, unassigned)
2. CC(C(=O)Nc1ccc(F)cc1)c1ccc2c(c1)CCCN2C(=O)c1cccc(Cl)c1 (racemic)

Result ::
1. 6.43
2. 7.37

###

Molecular target: IDO1 (Homo sapiens, UniProt P14902)
Sequence (P14902 whole entry): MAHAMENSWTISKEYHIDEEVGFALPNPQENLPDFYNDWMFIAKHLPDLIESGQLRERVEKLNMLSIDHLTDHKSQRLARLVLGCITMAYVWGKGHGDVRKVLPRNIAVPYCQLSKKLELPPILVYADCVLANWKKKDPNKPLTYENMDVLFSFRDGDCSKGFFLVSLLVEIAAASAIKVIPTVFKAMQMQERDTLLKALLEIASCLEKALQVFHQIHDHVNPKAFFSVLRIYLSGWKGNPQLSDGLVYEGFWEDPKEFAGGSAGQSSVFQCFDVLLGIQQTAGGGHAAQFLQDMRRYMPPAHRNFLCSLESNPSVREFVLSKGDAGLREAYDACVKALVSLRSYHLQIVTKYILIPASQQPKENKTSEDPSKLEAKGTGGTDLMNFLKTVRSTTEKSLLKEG
Test: IDO1 Human Whole Blood Assay
Assay type: cell-based
Design: Human whole blood was drawn in sodium heparin coated tubes from healthy internal donors; from tissue; host or cells: human whole blood from healthy donors, stimulated with LPS and IFNγ
Settings: LPS and IFNγ stimulated
Structures can show the parent of a compound that is named as a salt.
measurementLabel: IC50 (nM)
Answers are plain numbers, in nM.

Use these answered entries as a reference point.
Query :: # query: IC50 | item CC(NC(=O)c1ccc(Cl)cc1)c1ccc2c(n1)CCCN2C(=O)OCC(F)(F)F (stereo not shown) [Example 310] | system: IDO1 (Homo sapiens, UniProt P14902)
Result :: 46

Query :: Return IC50 measured with IDO1 (Homo sapiens, UniProt P14902) given this compound: Cc1cncc(N2CCCc3nc(C4(NC(=O)c5ccc(F)cc5)CC4)ccc32)n1 [Example 296]
Result :: 163

Quick request: IC50 for each listed item, please.
1. Cc1nccc(N2CCCc3nc(C4(NC(=O)c5ccc(Cl)nc5)CC4)ccc32)n1 [Example 300]
2. Cc1nccc(N2CCCc3nc(C(C)C(=O)Nc4ccc(Cl)cc4)ccc32)n1 (stereo not shown) [Example 362]
3. Cc1nccc(N2CCCc3nc(C4(C(=O)Nc5ccc(F)cc5)CC5(CC5)C4)ccc32)n1 [Example 415, 2,2,2-trifluoroacetate]
4. O=C(OC1CC1)N1CCCc2nc(C3(C(=O)Nc4ccc(F)cc4)CCC3)ccc21 [Example 410]

Result ::
[63, 984, 18, 70]

I'm hoping you can list IC50 for every compound here, please.
1. O=C(Nc1ccc(F)cc1)C1(c2ccc3c(n2)CCCN3c2ccnc(C(F)(F)F)n2)COC1 [Example 393]
2. O=C(OC1CC1)N1CCCc2nc(C3(C(=O)Nc4ccc(F)cc4)CC4(CC4)C3)ccc21 [Example 417]
3. CC(C(=O)Nc1ccc(F)cc1)c1ccc2c(c1)CCCN2C(=O)c1cc(C(F)F)ccn1 (stereo not shown) [Example 38]
4. O=C(NC1(c2ccc3c(n2)CCCN3c2ccnc(C3CC3)n2)CC1)c1ccc(F)cc1 [Example 307, trifluoroacetate]
5. Cc1nccc(N2CCCc3nc(C4(NC(=O)c5ccc(F)c(Br)c5)CC4)ccc32)n1 [Example 304]
6. CC(NC(=O)c1ccc(Cl)cc1)c1ccc2c(n1)CCCN2C(=O)C1CC1 (single isomer, unassigned) [Example 125]
7. Cc1cccc(N2CCCc3nc(C4(C(=O)Nc5ccc(Cl)cc5)CCC4)ccc32)n1 [Example 404]
8. O=C(C1CC1)N1CCCc2cc(C3(C(=O)Nc4ccc(F)cn4)CCC3)ccc21 [Example 96]

Result ::
[131, 12, 36, 63, 81, 289, 20, 223]

Parameters: items (list). Returns: IC50 for each item.
1. CC(NC(=O)c1ccc(Cl)cc1)c1ccc2c(n1)CCCN2C(=O)c1cc(C(F)F)ccn1 (stereo not shown) [Example 289]
2. Cc1nccc(N2CCCc3nc(C4(NC(=O)c5ccc(Br)cc5)CC4)ccc32)n1 [Example 301]

Result ::
17
21

###

Biological target: IDO1 (Homo sapiens)
Test: IDO1 Cellular Assay in HeLa Cells Stimulated with IFNγ
Assay type: cell-based
Settings: read-out: Hela IC50
Structures can show the parent of a compound that is named as a salt.
For each record, write down the corresponding log10(IC50).
Kindly note that the scale is log10 and the underlying IC50 is in nM.

Query :: Give IDO1 (Homo sapiens) log10(IC50) for Cc1cc(N2CCCc3nc(C(C)NC(=O)c4ccc(Cl)cc4)ccc32)nc(C(F)(F)F)n1 (stereo not drawn) [Example 349]
Result :: 0.99

Query :: Checklist item: log10(IC50) tested on IDO1 (Homo sapiens), entry CC(NC(=O)c1ccc(F)cc1)c1ccc2c(n1)CCCN2C(=O)OCC1CCO1 (stereo not drawn) [Example 313] , value?
Result :: 1.66

Query :: Form field: log10(IC50) recorded for Cc1cc(C)n(COC(=O)N2CCCc3nc(C(C)NC(=O)c4ccc(F)cc4)ccc32)n1 (stereo not drawn) [Example 320] with IDO1 (Homo sapiens) (enter value)
Result :: 1.84

Query :: For the record CC(NC(=O)c1ccc(Cl)cc1)c1ccc2c(n1)CCCN2c1nc(C(F)(F)F)nc2ccccc12 (stereo not drawn) [Example 358, trifluoroacetate] , what value of log10(IC50) is listed for IDO1 (Homo sapiens)?
Result :: 0.63

Query :: What measured log10(IC50) is associated with Cc1nccc(N2CC(F)Cc3cc(C4(NC(=O)c5ccc(Cl)cc5)CC4)ccc32)n1 (racemic) [Example 437, 2,2,2-trifluoroacetate salt] on IDO1 (Homo sapiens)?
Result :: 0.26

Query :: Identify the measured log10(IC50) of CCCOCCOC(=O)N1CCCc2nc(C(C)NC(=O)c3ccc(F)cc3)ccc21 (stereo not drawn) [Example 323] for IDO1 (Homo sapiens).
Result :: 0.64

Hey, can you go through the list below and give me log10(IC50) for every item?
1. CC(NC(=O)c1ccc(F)cc1)c1ccc2c(n1)CCCN2c1ncccc1F (stereo not drawn) [Example 375]
2. CC(NC(=O)c1ccc(F)cc1)c1ccc2c(n1)CCCN2C(=O)OCCCc1ccncc1 (stereo not drawn) [Example 322]

Result ::
1. 3.18
2. 2.66

###

Target: UniProtKB P14902
Test: IDO1 Cellular Assay in HeLa Cells Stimulated with IFNγ
Assay type: cell-based
Settings: about 48 hours, read-out: Hela IC50
# note: boundary value 20 nM maps to no; IC50 below it maps to yes

Query :: Hello, is IC50 of the following molecule strictly smaller than 20 nM? O=C(c1cccc(Cl)c1)N1CCc2nc(C3(C(=O)Nc4ccc(F)cc4)CCC3)ccc21
Result :: yes

Query :: Does O=C(OC1CC1)N1CCc2nc(C3(C(=O)Nc4ccc(F)cc4)CCC3)ccc21 have IC50 strictly under 20 nM?
Result :: yes

Query :: Given the entry C[C@@H](NC(=O)c1ccc(F)cc1)c1ccc2c(n1)CCCN2C(=O)[C@@H]1CC1(F)F (single isomer, unassigned) , would its reported IC50 be below 20 nM?
Result :: no

Query :: Quick check: IC50 of O=C(NCc1ccc2c(c1)CCCN2C(=O)OCc1ccccc1)c1ccc(Cl)cc1 under 20 nM?
Result :: no

API: the following record is the query input.
Query :: Regarding CC(=O)N1CCCc2nc(C3(NC(=O)c4ccc(F)cc4)CC3)ccc21 , kindly confirm whether its IC50 is beneath 20 nM.
Result :: no

###

Biological target: IDO1 (Homo sapiens)
Test: IDO1 Cellular Assay in HeLa Cells Stimulated with IFNγ
Assay type: cell-based
Settings: about 48 hours, read-out: Hela IC50
pIC50: −log10 of the molar value.
Assign TRUE to entries whose pIC50 meets or exceeds 8; assign FALSE to the rest.

Query :: State whether the measured pIC50 reaches 8, counting equality as reaching it, for COC(=O)N1CCCc2nc(C(C)C(=O)Nc3ccc(Cl)cc3)ccc21 (stereo not drawn) [Example 221]
Result :: FALSE

Query :: Hello, I need to know if COCCOC(=O)N1CCCc2nc(C(C)NC(=O)c3ccc(Cl)cc3)ccc21 (stereo not drawn) has measured pIC50 not below 8. Thanks!
Result :: TRUE

Query :: Could you please find out whether COC(=O)N1CCCc2cc(C3(C(=O)Nc4ccc(F)cn4)CCC3)ccc21 has pIC50 that meets 8 or exceeds it?
Result :: TRUE

Query :: Has CC(NC(=O)c1ccc(F)cc1)c1ccc2c(n1)C(F)CCN2C(=O)C1CC1 (single isomer, unassigned) [Example 201] a recorded pIC50 greater than or equal to 8?
Result :: FALSE

Query :: Hello, I need to know if CCc1ccnc(C(=O)N2CCCc3nc(C(C)NC(=O)c4ccc(Cl)cc4)ccc32)c1 (stereo not drawn) has measured pIC50 not below 8. Thanks!
Result :: TRUE

Query :: Check this compound for pIC50 at or above 8: CC(C(=O)Nc1ccc(F)cc1)c1ccc2c(n1)CCCN2C(=O)c1cccc(S(C)(=O)=O)c1 (stereo not drawn)
Result :: FALSE

Query :: Can COC(=O)N1CCCc2nc(C(C)C(=O)Nc3ccc(F)cc3)ccc21 (stereo not drawn) be said to have pIC50 at or above 8?
Result :: TRUE

Query :: Tell me whether pIC50 is at least 8 here: CC(=O)N1CC(C(=O)N2CCCc3cc([C@H](C)C(=O)Nc4ccc(F)cc4)ccc32)C1
Result :: FALSE

Query :: Reported pIC50 reaches at least 8 for CC(C)C(=O)N1CCCc2cc(C(C)C(=O)Nc3ccc(F)cc3)ccc21 (stereo not drawn) ?
Result :: TRUE

Query :: Answer whether pIC50 of CC(NC(=O)c1ccc(F)cc1)c1ccc2c(n1)C(F)(F)CCN2C(=O)C1CC1 (single isomer, unassigned) [Example 194] is greater than or equal to 8.
Result :: FALSE

Continuing:
Query :: Hi, just wondering whether CC(C)n1cc(C(=O)NCc2ccc3c(c2)CCCN3C(=O)c2cccc(Cl)c2)cn1 shows pIC50 of 8 or higher.
Result :: FALSE

Query :: # bool: pIC50 of CC(C(=O)Nc1ccc(F)cc1)c1ccc2c(c1)CCCN2Cc1cccc(Cl)c1 (single isomer, unassigned) [Example 225] >= 8
Result :: TRUE

Query :: Reported pIC50 reaches at least 8 for CC(NC(=O)c1ccc(F)cc1)c1ccc2c(n1)CCCN2C(=O)c1ccn(C2CC2)n1 (stereo in doubt) ?
Result :: FALSE

Query :: Would you say CC(C(=O)Nc1ccc(F)cc1)c1ccc2c(c1)CCCN2C1CCOCC1 (stereo not drawn) shows pIC50 at minimum 8?
Result :: FALSE

Query :: Textbook exercise: given the entry CC(NC(=O)c1ccc(F)cc1)c1ccc2c(n1)CCCN2C(=O)C1CCOCC1 (stereo in doubt) , state whether its pIC50 is greater than or equal to 8.
Result :: FALSE
